Recorded values, source patent US20210155689A1.

- target-desc: T1, human LAG-3 on cells (HEK293-hLAG-3 stable cell line) (human, UniProt P18627 23-525)
- T1 sequence: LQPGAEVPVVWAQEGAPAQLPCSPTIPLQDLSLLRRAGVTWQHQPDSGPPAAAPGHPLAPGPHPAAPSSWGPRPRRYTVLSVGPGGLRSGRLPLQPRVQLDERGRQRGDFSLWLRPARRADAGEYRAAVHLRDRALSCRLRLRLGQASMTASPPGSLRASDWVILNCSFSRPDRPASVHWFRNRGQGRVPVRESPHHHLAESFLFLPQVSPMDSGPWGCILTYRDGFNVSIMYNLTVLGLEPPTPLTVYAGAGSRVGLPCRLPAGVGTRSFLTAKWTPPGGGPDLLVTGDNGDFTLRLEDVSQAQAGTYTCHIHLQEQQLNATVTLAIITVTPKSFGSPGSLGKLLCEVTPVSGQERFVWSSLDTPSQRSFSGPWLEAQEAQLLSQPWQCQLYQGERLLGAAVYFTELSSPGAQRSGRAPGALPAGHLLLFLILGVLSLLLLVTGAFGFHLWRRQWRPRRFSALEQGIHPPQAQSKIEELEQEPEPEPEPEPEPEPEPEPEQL
- assay-details: FACS, HEK293-hLAG-3, antibody 40 nM
experimental-endpoint: Mean fluorescence intensity
One number for each entry.

Known results for binders:
binder	measured-value
405B8H3-11 humanized antibody (antibody, V domains shown) VH: QVQLVQSGAEVKKPGASVKVSCKASGYTFTDYEMHWVRQAPGQGLEWIGATDPETGNSAYNQKFKGRATMTADKSTSTAYMELSSLRSEDTAVYYCISTGWNDWGQGTTVTVSS VL: DIKMTQSPSSLSASVGDRVTITCKASQDINSYLSWFQQKPGKSPKSLIYRADRLLDGVPSRFSGSGSGQDYTLTISSLQPEDFATYYCLQYDEFPYTFGQGTKLEIK	230
405B8H3-6 humanized antibody (antibody, V domains shown) VH: QVQLVQSGAEVKKPGASVKVSCKASGYTFTDYEMHWVRQAPGQGLEWMGATDPETGNSAYNQKFKGRVTMTADKSTSTVYMELSSLRSEDTAVYYCISTGWNDWGQGTTVTVSS VL: DIQMTQSPSSLSASVGDRVTITCKASQDINSYLSWFQQKPGKAPKSLIYRADRLLDGVPSRFSGSGSGQDYTLTISSLQPEDFATYYCLQYDEFPYTFGQGTKLEIK	254

Give me Mean fluorescence intensity for each of these binders, listed below.
1. 405B8H3-12 humanized antibody (antibody, V domains shown) VH: QVQLVQSGAEVKKPGASVKVSCKASGYTFTDYEMHWVKQAPGQGLEWIGATDPETGNSAYNQKFKGKATMTADKSTSTAYMELSSLRSEDTAVYYCISTGWNDWGQGTTVTVSS VL: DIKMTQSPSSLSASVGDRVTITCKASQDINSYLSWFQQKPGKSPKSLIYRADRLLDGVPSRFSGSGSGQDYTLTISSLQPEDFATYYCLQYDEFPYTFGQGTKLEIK
2. 405B8H3-7 humanized antibody (antibody, V domains shown) VH: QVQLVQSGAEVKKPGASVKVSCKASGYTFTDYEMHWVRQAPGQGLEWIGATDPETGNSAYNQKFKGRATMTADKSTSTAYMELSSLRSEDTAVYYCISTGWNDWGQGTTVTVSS VL: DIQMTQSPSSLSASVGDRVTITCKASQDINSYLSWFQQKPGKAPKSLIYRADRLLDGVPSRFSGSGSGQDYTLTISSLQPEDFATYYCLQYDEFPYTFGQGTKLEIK
3. 405B8H3-10 humanized antibody (antibody, V domains shown) VH: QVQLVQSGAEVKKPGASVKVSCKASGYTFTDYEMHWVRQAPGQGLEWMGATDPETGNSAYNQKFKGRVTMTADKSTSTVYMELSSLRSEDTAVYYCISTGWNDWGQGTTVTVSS VL: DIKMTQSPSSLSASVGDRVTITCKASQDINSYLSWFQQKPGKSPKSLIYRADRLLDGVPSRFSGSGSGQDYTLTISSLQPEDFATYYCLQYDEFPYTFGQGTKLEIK

[A]
[229, 252, 238]
